Experiment: Half life in rat at 5 mg/kg
Type: ADME, organism-based
Settings: in vivo

- CHEMICAL STRING: "COC(=O)N[C@H](C(=O)N1CCC[C@H]1c1ncc(-c2ccc3c(c2)O[C@@H](c2ccccc2)n2c-3cc3cc(-c4cnc([C@@H]5CCCN5C(=O)[C@@H](NC(=O)OC)C5CCOCC5)[nH]4)ccc32)[nH]1)C1CCOCC1"
  half-life / h: 2.4

###

Biological target: Nonstructural protein 5A (Hepatitis C virus) (UniProt Q5L478)
Sequence (Q5L478 as listed by the source): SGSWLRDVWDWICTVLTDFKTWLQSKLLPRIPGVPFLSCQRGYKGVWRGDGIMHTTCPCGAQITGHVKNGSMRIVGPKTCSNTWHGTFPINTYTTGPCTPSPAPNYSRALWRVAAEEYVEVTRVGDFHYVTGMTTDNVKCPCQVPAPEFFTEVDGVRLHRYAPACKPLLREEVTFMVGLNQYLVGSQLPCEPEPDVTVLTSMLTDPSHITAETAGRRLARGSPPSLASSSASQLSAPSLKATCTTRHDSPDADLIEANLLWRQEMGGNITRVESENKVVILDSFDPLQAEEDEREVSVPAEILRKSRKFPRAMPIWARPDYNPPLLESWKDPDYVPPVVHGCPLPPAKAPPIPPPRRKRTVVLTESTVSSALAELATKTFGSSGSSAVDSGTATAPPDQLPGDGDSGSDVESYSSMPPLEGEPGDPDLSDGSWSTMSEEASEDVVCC
Assay: Inhibition of wild type HCV genotype 1a NS5A assessed as reduction in viral RNA level by cell based real time PCR method
Details: Hepatitis C virus subtype 1a
EC90 values by entry

- CHEMICAL STRING: "COC(=O)N[C@H](C(=O)N1CCC[C@H]1c1ncc(-c2ccc3c(c2)O[C@@H](c2ccccc2)n2c-3cc3cc(-c4cnc([C@@H]5CCCN5C(=O)[C@@H](NC(=O)OC)[C@@H](C)OC)[nH]4)ccc32)[nH]1)C(C)C"
  TEST TARGET: "Nonstructural protein 5A (Hepatitis C virus) (UniProt Q5L478)"
  UNIT OF MEASURE: "nM"
  OPERATOR SYMBOL: "="
  EC90: 0.039
- CHEMICAL STRING: "COC(=O)N[C@H](C(=O)N1CCC[C@H]1c1ncc(-c2ccc3c(c2)cc2n3[C@H](c3ccccc3)Oc3cc(-c4cnc([C@@H]5CCCN5C(=O)[C@@H](NC(=O)OC)C5CCOCC5)[nH]4)ccc3-2)[nH]1)C(C)C"
  TEST TARGET: "Nonstructural protein 5A (Hepatitis C virus) (UniProt Q5L478)"
  UNIT OF MEASURE: "nM"
  OPERATOR SYMBOL: "="
  EC90: 0.061
- CHEMICAL STRING: "COC(=O)N[C@H](C(=O)N1CCC[C@H]1c1ncc(-c2ccc3c(c2)O[C@@H](c2ccccc2)n2c-3cc3cc(-c4cnc([C@@H]5CCCN5C(=O)[C@@H](NC(=O)OC)[C@@H](C)O)[nH]4)ccc32)[nH]1)[C@@H](C)O"
  TEST TARGET: "Nonstructural protein 5A (Hepatitis C virus) (UniProt Q5L478)"
  UNIT OF MEASURE: "nM"
  OPERATOR SYMBOL: ">"
  EC90: 1
- CHEMICAL STRING: "CCN(CC)[C@@H](C(=O)N1CCC[C@H]1c1ncc(-c2ccc3c(c2)cc2n3[C@H](c3ccccc3)Oc3cc(-c4cnc([C@@H]5CCCN5C(=O)[C@@H](NC(=O)OC)C(C)C)[nH]4)ccc3-2)[nH]1)c1ccccc1"
  TEST TARGET: "Nonstructural protein 5A (Hepatitis C virus) (UniProt Q5L478)"
  UNIT OF MEASURE: "nM"
  OPERATOR SYMBOL: "="
  EC90: 0.045
- CHEMICAL STRING: "COC(=O)N[C@@H](C(=O)N1CCC[C@H]1c1ncc(-c2ccc3c(c2)O[C@@H](c2ccccc2)n2c-3cc3cc(-c4cnc([C@@H]5CCCN5C(=O)[C@H](NC(=O)OC)C5CCOCC5)[nH]4)ccc32)[nH]1)C1CCOCC1"
  TEST TARGET: "Nonstructural protein 5A (Hepatitis C virus) (UniProt Q5L478)"
  UNIT OF MEASURE: "nM"
  OPERATOR SYMBOL: "="
  EC90: 8.6
- CHEMICAL STRING: "CC[C@H](C)[C@H](NC(=O)OC)C(=O)N1CCC[C@H]1c1ncc(-c2ccc3c(c2)O[C@@H](c2ccccc2)n2c-3cc3cc(-c4cnc([C@@H]5CCCN5C(=O)[C@@H](NC(=O)OC)[C@@H](C)CC)[nH]4)ccc32)[nH]1"
  TEST TARGET: "Nonstructural protein 5A (Hepatitis C virus) (UniProt Q5L478)"
  UNIT OF MEASURE: "nM"
  OPERATOR SYMBOL: "="
  EC90: 0.011
- CHEMICAL STRING: "CC[C@H](C)[C@H](NC(=O)OC)C(=O)N1CCC[C@H]1c1ncc(-c2ccc3c(c2)O[C@@H](c2ccccc2)n2c-3cc3cc(-c4cnc([C@@H]5CCCN5C(=O)[C@@H](NC(=O)OC)C(C)C)[nH]4)ccc32)[nH]1"
  TEST TARGET: "Nonstructural protein 5A (Hepatitis C virus) (UniProt Q5L478)"
  UNIT OF MEASURE: "nM"
  OPERATOR SYMBOL: "="
  EC90: 0.06
- CHEMICAL STRING: "COC(=O)N[C@H](C(=O)N1CCC[C@H]1c1nc(-c2ccc3c(c2)O[C@@H](c2ccccc2)n2c-3cc3cc(-c4c[nH]c([C@@H]5CCCN5C(=O)[C@@H](NC(=O)OC)C(C)C)n4)ccc32)c[nH]1)C(C)C"
  TEST TARGET: "Nonstructural protein 5A (Hepatitis C virus) (UniProt Q5L478)"
  UNIT OF MEASURE: "nM"
  OPERATOR SYMBOL: "="
  EC90: 0.006
- CHEMICAL STRING: "O=C([C@@H](c1ccccc1)N1CCCC1)N1CCC[C@H]1c1ncc(-c2ccc3c(c2)O[C@@H](c2ccccc2)n2c-3cc3cc(-c4cnc([C@@H]5CCCN5C(=O)[C@@H](c5ccccc5)N5CCCC5)[nH]4)ccc32)[nH]1"
  TEST TARGET: "Nonstructural protein 5A (Hepatitis C virus) (UniProt Q5L478)"
  UNIT OF MEASURE: "nM"
  OPERATOR SYMBOL: "="
  EC90: 3.9

meta.source: ChEMBL document CHEMBL4425153
